- System: K562 (chronic myeloid leukaemia)
- Experimental Protocol: Cytotoxicity on K562 line (resazurin, 72 h)
- Type: cell-based
- Stated Conditions: Homo sapiens, K562; Table 2; 50% cell death after 72 hours of incubation; read-out: K562 IC50
IC50 under 20 nM gets yes, anything at or over 20 nM gets no.

Would you please look over these solved cases?
Compound	Class Assignment
C=C(c1ccc(OC)cc1)c1nc(C)nc2ccccc12	no
C=C(c1ccc(OC)c(C#CCO)c1)c1nc(C)nc2ccccc12	yes
C=C(c1ccc(OC)cc1)c1cc(C)nc2ccccc12	yes
C=C(c1ccc(OC)c(O)c1)c1cc(OC)c(OC)c(OC)c1 [isoCA-4, Isocombretastatin A-4, reference compound]	yes
C=C(c1ccc(OC)cc1)c1nc(Cl)nc2ccccc12	no

Proceed to the following item.
IC50 strictly < 20 nM for this compound? `C=C(c1ccc(OC)cc1)c1cc(C#N)nc2ccccc12`
yes
